Recorded MIC by entry
Test system: Bacillus cereus
METHOD_NOTES: Antibacterial activity against Bacillus cereus ATCC 11778 after 24 hrs by broth microdilution method
Format: functional
COND: ATCC 11778, 24 h
MEASUREMENT_TYPE: MIC (µg/mL)

[[record]]
compound = "C=C(C)C(O)CC/C(C)=C/Cc1c(O)cc2c(c1O)C(=O)C[C@@H](c1ccc(O)c(OC)c1)O2 (some centres undefined)"
assayed_target = "Bacillus cereus"
measurement_type = "MIC"
unit_label = "µg/mL"
inequality_operator = "="
reported_value = 16

[[record]]
compound = "O=C(O)c1cn(C2CC2)c2cc(N3CCNCC3)c(F)cc2c1=O"
assayed_target = "Bacillus cereus"
measurement_type = "MIC"
unit_label = "µg/mL"
inequality_operator = "="
reported_value = 1

[[record]]
compound = "COc1cc([C@H]2Oc3cc(O)c(C/C=C(\\C)CCC=C(C)C)c(O)c3C(=O)[C@@H]2O)ccc1O"
assayed_target = "Bacillus cereus"
measurement_type = "MIC"
unit_label = "µg/mL"
inequality_operator = "="
reported_value = 2

[[record]]
compound = "COc1cc([C@@H]2CC(=O)c3c(cc(O)c(C/C=C(\\C)CCC=C(C)C)c3O)O2)cc(OC)c1O"
assayed_target = "Bacillus cereus"
measurement_type = "MIC"
unit_label = "µg/mL"
inequality_operator = "="
reported_value = 4

[[record]]
compound = "COc1cc([C@@H]2CC(=O)c3c(cc(O)c(C/C=C(\\C)CCC=C(C)C)c3O)O2)cc(O)c1O"
assayed_target = "Bacillus cereus"
measurement_type = "MIC"
unit_label = "µg/mL"
inequality_operator = "="
reported_value = 4

[[record]]
compound = "COc1cc([C@@H]2CC(=O)c3c(cc(O)c(C/C=C(\\C)CCC=C(C)C)c3O)O2)ccc1O"
assayed_target = "Bacillus cereus"
measurement_type = "MIC"
unit_label = "µg/mL"
inequality_operator = "="
reported_value = 4

[[record]]
compound = "CC(C)=CCC/C(C)=C/Cc1c(O)cc2c(c1O)C(=O)C[C@@H](c1ccc(O)c(O)c1)O2"
assayed_target = "Bacillus cereus"
measurement_type = "MIC"
unit_label = "µg/mL"
inequality_operator = "="
reported_value = 4

[[record]]
compound = "CC(C)=CCC/C(C)=C/Cc1c(O)cc2c(c1O)C(=O)C[C@@H](c1ccc(O)cc1)O2"
assayed_target = "Bacillus cereus"
measurement_type = "MIC"
unit_label = "µg/mL"
inequality_operator = "="
reported_value = 4

[[record]]
compound = "COc1cc([C@@H]2CC(=O)c3c(cc(O)c(C/C=C(\\C)C/C=C/C(C)(C)O)c3O)O2)ccc1O"
assayed_target = "Bacillus cereus"
measurement_type = "MIC"
unit_label = "µg/mL"
inequality_operator = ">"
reported_value = 32


====

Tested on: Staphylococcus epidermidis
METHOD_NOTES: Antibacterial activity against Staphylococcus epidermidis ATCC 12228 after 24 hrs by broth microdilution method
Assay type: functional
COND: ATCC 12228, 24 h
MEASUREMENT_TYPE: MIC (µg/mL)

[[record]]
molecule = "CC(C)=CCC/C(C)=C/Cc1c(O)cc2c(c1O)C(=O)C[C@@H](c1ccc(O)cc1)O2"
inequality_operator = "="
reported_value = 4

[[record]]
molecule = "C=C(C)C(O)CC/C(C)=C/Cc1c(O)cc2c(c1O)C(=O)C[C@@H](c1ccc(O)c(OC)c1)O2 (some centres undefined)"
inequality_operator = "="
reported_value = 32

[[record]]
molecule = "COc1cc([C@@H]2CC(=O)c3c(cc(O)c(C/C=C(\\C)C/C=C/C(C)(C)O)c3O)O2)ccc1O"
inequality_operator = ">"
reported_value = 32

[[record]]
molecule = "COc1cc([C@@H]2CC(=O)c3c(cc(O)c(C/C=C(\\C)CCC=C(C)C)c3O)O2)cc(O)c1O"
inequality_operator = "="
reported_value = 4

[[record]]
molecule = "COc1cc([C@@H]2CC(=O)c3c(cc(O)c(C/C=C(\\C)CCC=C(C)C)c3O)O2)cc(OC)c1O"
inequality_operator = "="
reported_value = 4

[[record]]
molecule = "O=C(O)c1cn(C2CC2)c2cc(N3CCNCC3)c(F)cc2c1=O"
inequality_operator = "="
reported_value = 1

[[record]]
molecule = "COc1cc([C@H]2Oc3cc(O)c(C/C=C(\\C)CCC=C(C)C)c(O)c3C(=O)[C@@H]2O)ccc1O"
inequality_operator = "="
reported_value = 2

[[record]]
molecule = "COc1cc([C@@H]2CC(=O)c3c(cc(O)c(C/C=C(\\C)CCC=C(C)C)c3O)O2)ccc1O"
inequality_operator = "="
reported_value = 4

[[record]]
molecule = "CC(C)=CCC/C(C)=C/Cc1c(O)cc2c(c1O)C(=O)C[C@@H](c1ccc(O)c(O)c1)O2"
inequality_operator = "="
reported_value = 4


These measurements were taken from ChEMBL document CHEMBL1149844.
